- TGT: human TLR8 (Homo sapiens, UniProt Q9NR97)
- Sequence (Q9NR97 27-1041): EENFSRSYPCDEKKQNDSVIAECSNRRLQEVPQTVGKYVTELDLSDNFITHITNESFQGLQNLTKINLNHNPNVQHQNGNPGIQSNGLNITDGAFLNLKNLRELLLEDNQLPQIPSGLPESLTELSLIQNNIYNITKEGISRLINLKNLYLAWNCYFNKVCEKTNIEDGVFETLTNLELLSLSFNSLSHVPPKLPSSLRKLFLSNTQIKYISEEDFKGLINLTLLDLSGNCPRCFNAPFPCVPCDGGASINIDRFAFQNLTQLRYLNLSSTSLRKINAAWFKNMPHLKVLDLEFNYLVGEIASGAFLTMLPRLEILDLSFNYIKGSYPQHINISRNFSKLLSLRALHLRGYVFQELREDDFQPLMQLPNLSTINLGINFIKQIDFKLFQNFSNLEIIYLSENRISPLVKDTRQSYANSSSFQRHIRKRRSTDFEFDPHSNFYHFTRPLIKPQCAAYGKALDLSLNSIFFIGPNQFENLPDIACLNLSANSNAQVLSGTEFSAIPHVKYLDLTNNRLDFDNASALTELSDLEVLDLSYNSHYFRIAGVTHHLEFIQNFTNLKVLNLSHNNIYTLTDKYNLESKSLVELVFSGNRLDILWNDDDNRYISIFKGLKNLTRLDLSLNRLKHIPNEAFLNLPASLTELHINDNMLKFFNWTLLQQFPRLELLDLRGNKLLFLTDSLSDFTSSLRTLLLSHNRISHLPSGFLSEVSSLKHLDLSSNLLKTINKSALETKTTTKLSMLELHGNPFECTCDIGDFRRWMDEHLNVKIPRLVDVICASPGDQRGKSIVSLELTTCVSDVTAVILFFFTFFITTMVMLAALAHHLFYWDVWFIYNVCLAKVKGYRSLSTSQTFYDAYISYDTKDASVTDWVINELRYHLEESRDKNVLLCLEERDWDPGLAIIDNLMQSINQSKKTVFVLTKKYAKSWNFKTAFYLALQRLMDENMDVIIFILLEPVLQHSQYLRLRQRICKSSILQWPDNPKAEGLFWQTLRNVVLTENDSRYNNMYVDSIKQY
- METHOD_DESCRIPTION: HEK293-Blue-hTLR-8 cells assay (SEAP reporter, R848 stimulation)
- CONDITION_DETAILS: HEK293-Blue-hTLR8 cells, R848, 20 hrs; read-out: HEK/hTLR8 IC50
We begin with a simple list: items and their reported log10 of IC50.
Short version: log10 scale, IC50, nM.

C[C@H]1CN(c2ccnc3c2cnn3C)Cc2ccc(N3C4CCC3CNC4)cc21 | 0.48

State the measured log10 of IC50 (human TLR8 (Homo sapiens, UniProt Q9NR97)) of Cc1cc(N2Cc3cnc(N4CC5(CNCCO5)C4)cc3[C@@H](C)C2)c2cnn(C)c2n1
1.36

With human TLR8 (Homo sapiens, UniProt Q9NR97) as the test system, provide measured log10 of IC50 for this compound: C[C@H]1CN(c2ccnc3c2cnn3C)Cc2ccc(OC[C@@H]3CNCCN3C=O)cc21
1.00

Using human TLR8 (Homo sapiens, UniProt Q9NR97) as the test system, report measured log10 of IC50 of C[C@H]1CN(c2ccnc3c2cnn3C)Cc2ccc(OCCN3CCNCC3)cc21 .
0.85

# return log10 of IC50 of Cn1ncc2c(N3CCc4cc(N5CCNCC5)ccc4C3)ccnc21 (system: human TLR8 (Homo sapiens, UniProt Q9NR97))
1.75
